- System name: TNKS1 (Homo sapiens)
- Run description: TNKS1/PARP Biochemical Assay (TNKS1)
Measurement kind: IC50

Cc1cccc2c(=O)[nH]c(-c3ccc(S(=O)(=O)N4CCN(C)CC4)cc3)cc12    < 50 nM
CN(CC1CCNCC1)S(=O)(=O)c1ccc(-c2cc3c(Cl)cccc3c(=O)[nH]2)cc1    < 50 nM
CC(=O)N1CCN(c2ccc(-c3cc4c(C)cccc4c(=O)[nH]3)cc2)CC1    < 20 nM
Cc1cccc2c(=O)[nH]c(-c3ccc(CN4CCNCC4)nc3)cc12    < 500 nM

Prompt: I have this molecule here, Cc1cccc2c(=O)[nH]c(-c3cnc(N4CCN(C(=O)OC(C)(C)C)CC4)c(F)c3)cc12 , and I need its recorded IC50.
Response: < 500 nM

Prompt: Please report the recorded IC50 for CC(=O)N1CCN(Cc2ccc(-c3cc4c(C)cccc4c(=O)[nH]3)cc2)CC1 .
Response: < 20 nM

Prompt: Need IC50, item COCCN1CCN(C(=O)c2ccc(-c3cc4c(C)cccc4c(=O)[nH]3)cc2)CC1
Response: < 20 nM

Prompt: For the molecule shown here, CN1CCN(c2ccc(-c3cc4c(Cl)cccc4c(=O)[nH]3)cn2)CC1 [IQ-002] , give the reported IC50.
Response: 39 nM

Prompt: Fill blank: measured IC50 of the molecule Cc1cccc2c(=O)[nH]c(-c3ccc(OCCN4CCOCC4)cc3)cc12 is ____.
Response: < 500 nM

###

- System name: TNKS1 (Homo sapiens, UniProt O95271)
- Run description: TNKS1/PARP Biochemical Assay (TNKS1)
Measurement kind: IC50

Illustrative cases are given below, each with its answer.
Cc1cccc2c(=O)[nH]c(-c3ccc(CN4CCNC(C)C4)cc3)cc12 (single isomer, unassigned) [IQ-084-2]    < 50 nM
Cc1cccc2c(=O)[nH]c(-c3ccc(C(=O)N(C)C4CCNC4)cc3)cc12 (stereo not drawn)    < 20 nM
Cc1cccc2c(=O)[nH]c(-c3cnc(N4CCNCC4)nc3)cc12    < 50 nM
Cc1cccc2c(=O)[nH]c(-c3ccc(C(=O)N(C)Cc4nccn4C)cc3)cc12    < 20 nM
Cc1cccc2c(=O)[nH]c(-c3ccc(C(=O)N(C)CC4(C)CCN(C)C4)cc3)cc12 (stereo not drawn)    < 20 nM
Cc1cccc2c(=O)[nH]c(-c3ccc(N4CCN(C)CC4)nc3)cc12    21 nM
Cc1cccc2c(=O)[nH]c(-c3ccc(CCN4CCOCC4)cc3)cc12    < 50 nM
O=C(c1ncc(-c2cc3c(F)ccc(F)c3c(=O)[nH]2)cn1)N1CCN(CC2CC2)CC1    < 500 nM

// next item, IC50 requested
Prompt: Any idea what IC50 was measured for CN(C)CCOc1ccc(-c2cc3c(Cl)cccc3c(=O)[nH]2)cc1 ?
Response: < 500 nM

###

Measured IC50 of individual entries
- System name: TNKS1 (Homo sapiens)
- Run description: TNKS1/PARP Biochemical Assay (TNKS1)

Cc1cccc2c(=O)[nH]c(-c3ccc(C(C)(C)C(=O)N4CC(O)C4)cc3)cc12    < 50 nM
Cc1cccc2c(=O)[nH]c(-c3ccc(S(=O)(=O)N4CCC(N(C)C)CC4)cc3)cc12    < 20 nM
CC(=O)N1CCN(Cc2ccc(-c3cc4c(Cl)cccc4c(=O)[nH]3)cc2)CC1    < 50 nM
Cc1cc(F)cc2c(=O)[nH]c(-c3ccc(CC(=O)N4CC(O)C4)cc3)cc12    < 20 nM
CN1CCN(Cc2ccc(-c3cc4c(Cl)cccc4c(=O)[nH]3)cc2)C(=O)C1    < 50 nM
Cc1cccc2c(=O)[nH]c(-c3ccc(N4CCC(N(C)C)C4)nc3)cc12 (stereo not shown)    < 20 nM

Prompt: I have this compound here, CN(C)CCOc1ccc(-c2cc3c(C#CCO)cccc3c(=O)[nH]2)cc1 , and I need its recorded IC50.
Response: < 500 nM

Prompt: Suppose we examine the compound CN(C)CCN1CCN(c2ccc(-c3cc4c(Cl)cccc4c(=O)[nH]3)cn2)CC1 ; what IC50 value has been reported?
Response: < 50 nM

Prompt: What IC50 value was documented for this compound, Cc1cc(F)cc2c(=O)[nH]c(-c3ccc(C(=O)N4CCN(C)CC4)cc3)cc12.O=CO ?
Response: < 20 nM

Prompt: Quick one: IC50 for CN1CCN(S(=O)(=O)c2ccc(-c3cc4c(Cl)cccc4c(=O)[nH]3)cc2)CC1 ?
Response: < 500 nM

Prompt: Recorded IC50 for Cc1cccc2c(=O)[nH]c(-c3ccc(S(=O)(=O)N(C)CC4CCOCC4)cc3)cc12 , please?
Response: < 20 nM

Prompt: # get_value(readout='IC50', item= Cc1cccc2c(=O)[nH]c(-c3ccc(CN4CCN(C(=O)OC(C)(C)C)CC4)nc3)cc12 )
Response: < 500 nM

Prompt: Could you tell me which IC50 is on file for Cc1cccc2c(=O)[nH]c(-c3ccc(C(=O)N4CCN(C)CC4)cc3F)cc12 ?
Response: < 500 nM

Prompt: Looking for the measured IC50 of Cc1cccc2c(=O)[nH]c(-c3ccc(C(=O)N4CCN(C5CC5)CC4)cc3)cc12 , can you help?
Response: < 50 nM
